Assayed Target: T1, CA150 FF1-3 wild-type (human, UniProt O14776 661-845)
T1 sequence: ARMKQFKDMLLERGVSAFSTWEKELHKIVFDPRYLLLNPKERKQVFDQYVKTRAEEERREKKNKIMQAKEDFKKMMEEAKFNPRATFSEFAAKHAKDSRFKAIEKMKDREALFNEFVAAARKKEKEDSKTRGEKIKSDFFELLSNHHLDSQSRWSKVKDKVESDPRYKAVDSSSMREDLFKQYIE
Method Notes: fluorescence polarization
pKd: −log10 of the molar value.
Measurement Label: pKd

# Binder, Obs Value
measured = [
    ("MATa1/MATalpha2 duplex of Ke et al. (dsDNA) DNA 1: ACATGTAAAAATTTACATCA DNA 2: TTGATGTAAATTTTTACATG", 5.41),
]
